The measurements presented in this section are drawn from ChEMBL document CHEMBL2010778.

Target: Diacylglycerol O-acyltransferase 1 (Homo sapiens)
Sequence (O75907 whole entry): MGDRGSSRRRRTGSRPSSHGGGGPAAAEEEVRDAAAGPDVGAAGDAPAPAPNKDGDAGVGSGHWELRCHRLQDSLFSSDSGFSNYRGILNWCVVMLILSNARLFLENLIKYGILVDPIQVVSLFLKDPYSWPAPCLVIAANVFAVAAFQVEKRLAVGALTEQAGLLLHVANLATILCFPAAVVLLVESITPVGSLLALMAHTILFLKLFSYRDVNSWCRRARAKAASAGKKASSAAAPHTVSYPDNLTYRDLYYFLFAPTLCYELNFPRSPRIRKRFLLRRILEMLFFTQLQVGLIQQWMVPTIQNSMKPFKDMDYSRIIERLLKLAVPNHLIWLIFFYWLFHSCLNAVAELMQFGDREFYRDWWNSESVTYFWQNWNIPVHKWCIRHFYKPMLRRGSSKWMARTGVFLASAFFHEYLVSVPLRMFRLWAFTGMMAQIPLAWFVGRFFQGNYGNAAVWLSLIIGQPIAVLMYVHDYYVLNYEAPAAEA
Test: Inhibition of human recombinant DGAT1 expressed in baculovirus infected Sf9 cells after 60 mins by scintillation counting method
pIC50: −log10 of the molar value.
assay_readout: pIC50

CN(C(=O)c1ccc([C@H]2CC[C@H](CC(=O)O)CC2)cc1)c1nnc(Cc2ccccc2)s1	< 5.00

Query block: Quick check: pIC50 of O=C(O)CC1CCC(c2ccc(Nc3nnc(Cc4ccccc4)s3)cc2)CC1 (mixture of isomers) ?
Result block: < 5.00

Query block: Quick check: pIC50 of `CS(=O)(=O)c1nnc(NC(=O)c2ccc([C@H]3CC[C@H](CC(=O)O)CC3)cc2)s1` ?
Result block: < 5.00

----------
Assay: Plasma concentration in C57BL/6J mouse at 1 mg/kg, po administered 1 hr before lipid challenge measured after 1 hr post dose
Assay type: ADME, organism-based
Set-up: dose 1 mg/kg, route oral
assay_readout: concentration at 1 h (ng/mL)
Please give a number only; it is taken to be in ng/mL.

Query block: Quick check: concentration at 1 h of `O=C(O)C[C@H]1CC[C@H](c2ccc(C(=O)Nc3nnc(Cc4ccccc4)s3)cc2)CC1` ?
Result block: 79.1

----------
Experiment: Metabolic stability in mouse hepatic microsomes assessed as compound metabolism after 20 mins
Assay type: ADME
Details: liver microsomes, read-out: Drug metabolism
Recorded metabolised at 20 min values for a group of molecules are listed next.
Please give a number only; it is taken to be in %.

O=C(O)C[C@H]1CC[C@H](c2ccc(C(=O)Nc3nnc(Cc4ccccc4F)s3)cc2)CC1	4
O=C(O)C[C@H]1CC[C@H](c2ccc(C(=O)Nc3nnc(Cc4ccccc4)s3)cc2)CC1	5

Query block: Quick check: metabolised at 20 min of `O=C(O)C[C@H]1CC[C@H](c2ccc(C(=O)Nc3nnc(Cc4cccc(F)c4)s3)cc2)CC1` ?
Result block: 10

Query block: Quick check: metabolised at 20 min of `O=C(O)C[C@H]1CC[C@H](c2ccc(C(=O)Nc3nnc(Cc4cccc(Cl)c4)s3)cc2)CC1` ?
Result block: 14

----------
Test: Metabolic stability in human hepatic microsomes assessed as compound metabolism after 20 mins
Type: ADME
Details: liver microsomes, read-out: Drug metabolism
assay_readout: metabolised at 20 min (%)
Please give a number only; it is taken to be in %.

O=C(O)C[C@H]1CC[C@H](c2ccc(C(=O)Nc3nnc(Cc4cccc(F)c4)s3)cc2)CC1	1
O=C(O)C[C@H]1CC[C@H](c2ccc(C(=O)Nc3nnc(Cc4ccccc4F)s3)cc2)CC1	0
O=C(O)C[C@H]1CC[C@H](c2ccc(C(=O)Nc3nnc(Cc4cccc(Cl)c4)s3)cc2)CC1	6

Query block: Quick check: metabolised at 20 min of `O=C(O)C[C@H]1CC[C@H](c2ccc(C(=O)Nc3nnc(Cc4ccccc4)s3)cc2)CC1` ?
Result block: 0
